Numbers sourced from patent US7662856B2.

- target of assay: alanine racemase enzyme from P. aeruginosa (Pseudomonas aeruginosa, UniProt Q9HTQ2, A178S/N326M/S138R/S262R)
- Sequence (Q9HTQ2 whole entry S138R/A178S/S262R/N326M): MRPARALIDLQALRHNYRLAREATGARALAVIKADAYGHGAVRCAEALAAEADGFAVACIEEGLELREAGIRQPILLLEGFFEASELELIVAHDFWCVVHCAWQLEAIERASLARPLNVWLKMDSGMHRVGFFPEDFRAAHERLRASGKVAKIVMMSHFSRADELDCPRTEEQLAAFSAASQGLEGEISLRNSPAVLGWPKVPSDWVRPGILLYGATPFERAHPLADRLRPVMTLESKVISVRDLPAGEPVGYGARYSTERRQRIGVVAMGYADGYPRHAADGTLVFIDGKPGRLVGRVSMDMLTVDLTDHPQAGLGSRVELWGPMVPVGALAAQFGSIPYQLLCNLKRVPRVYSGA
- assay text: biochemical
- condition summary: Ki
pKi: −log10 of the molar value.
Use t when the recorded pKi is no lower than 3; use f when it is lower.

[
  {
    "compound": "Cl.NCC(=O)NO [HCl•H2NCH2C(O)NHOH, Glycine Hydroxamic Acid Hydrochloride]",
    "class name": "t"
  }
]

# input for lookup
Q: Say whether CNCC(=O)NO [CH3NHCH2C(O)NHOH, Sarcosine Hydroxamic Acid] shows pKi of 3 or more.
Result: f

* * *

- target of assay: alanine racemase enzyme from S. aureus (Staphylococcus aureus)
- assay text: biochemical
- condition summary: read-out: In % (percent inhibition of alanine racemase)
Where a name gives a salt, the structure may show the parent alone.
Use MET when the recorded inhibition at 2500 µM is no lower than 30%; use NOT MET when it is lower.

[
  {
    "compound": "Cl.NCCC(=O)NO [HCl•H2NCH2CH2C(O)NHOH, β-Alanine Hydroxamic Acid Hydrochloride]",
    "target of assay": "alanine racemase enzyme from S. aureus (Staphylococcus aureus)",
    "class name": "MET"
  },
  {
    "compound": "CNCC(=O)NO [CH3NHCH2C(O)NHOH, Sarcosine Hydroxamic Acid]",
    "target of assay": "alanine racemase enzyme from S. aureus (Staphylococcus aureus)",
    "class name": "NOT MET"
  },
  {
    "compound": "C[C@@H](N)C(=O)NO [Hcl•H2NCH(CH3)C(O)NHOH, D-Alanine Hydroxamic Acid Hydrochloride]",
    "target of assay": "alanine racemase enzyme from S. aureus (Staphylococcus aureus)",
    "class name": "MET"
  },
  {
    "compound": "Cl.NCC(=O)NO [HCl•H2NCH2C(O)NHOH, Glycine Hydroxamic Acid Hydrochloride]",
    "target of assay": "alanine racemase enzyme from S. aureus (Staphylococcus aureus)",
    "class name": "MET"
  }
]

Q: Say whether C[C@H](N)C(=O)NO.Cl [HCl•H2NCH(CH3)C(O)NHOH*, L-Alanine Hydroxamic Acid Hydrochloride] shows inhibition at 2500 µM of 30% or more.
Result: MET
